Field: EC50. Provide a value for each of the binders that follow.
biological target: T1, human GPC3 on cells (human, UniProt P51654 25-554); experiment: FACS, Hep3B cells
T1 construct: whole, on cells; over-expressed on CHOK1 cells or endogenous on HEPG2, Hep3B and Huh-7 hepatocellular carcinoma cells; the cell line is named under assay; also called GPC3-CHOK1 cells; human GPC3 over-expressed CHOK1 cells
Report the figure in µg/mL without appending any unit label.

Name the reported EC50 value associated with the binder 52H5D3B8-6#-VH3+VL1 (antibody, V domains shown, humanized) VH: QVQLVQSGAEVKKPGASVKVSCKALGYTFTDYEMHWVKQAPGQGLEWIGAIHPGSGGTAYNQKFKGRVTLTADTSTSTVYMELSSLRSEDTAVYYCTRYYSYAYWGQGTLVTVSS VL: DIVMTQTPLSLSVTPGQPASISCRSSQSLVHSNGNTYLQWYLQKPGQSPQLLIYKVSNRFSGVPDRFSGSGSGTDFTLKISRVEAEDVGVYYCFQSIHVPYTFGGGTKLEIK
0.0738

Name the reported EC50 value associated with the binder 52H5D3B8-6#-VH1+VL4 (antibody, V domains shown, humanized) VH: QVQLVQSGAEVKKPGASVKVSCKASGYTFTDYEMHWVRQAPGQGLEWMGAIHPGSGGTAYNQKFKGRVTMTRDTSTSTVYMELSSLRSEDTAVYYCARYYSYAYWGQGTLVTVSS VL: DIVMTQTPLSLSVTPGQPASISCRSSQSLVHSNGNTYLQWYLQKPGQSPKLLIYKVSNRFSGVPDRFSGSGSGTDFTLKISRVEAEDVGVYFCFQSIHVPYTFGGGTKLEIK
0.0545

Name the reported EC50 value associated with the binder 52H5D3B8-6#-VH1+VL2 (antibody, V domains shown, humanized) VH: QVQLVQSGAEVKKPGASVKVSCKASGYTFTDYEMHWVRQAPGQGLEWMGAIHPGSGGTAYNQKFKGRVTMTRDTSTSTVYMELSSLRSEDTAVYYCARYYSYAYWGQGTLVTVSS VL: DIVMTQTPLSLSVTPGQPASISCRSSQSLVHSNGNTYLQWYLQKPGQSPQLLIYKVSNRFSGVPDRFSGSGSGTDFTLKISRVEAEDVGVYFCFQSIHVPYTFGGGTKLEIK
0.0615

Name the reported EC50 value associated with the binder 52H5D3B8-6#-VH2+VL3 (antibody, V domains shown, humanized) VH: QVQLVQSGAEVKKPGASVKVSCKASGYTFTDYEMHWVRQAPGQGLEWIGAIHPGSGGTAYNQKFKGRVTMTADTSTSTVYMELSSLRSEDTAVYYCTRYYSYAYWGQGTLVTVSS VL: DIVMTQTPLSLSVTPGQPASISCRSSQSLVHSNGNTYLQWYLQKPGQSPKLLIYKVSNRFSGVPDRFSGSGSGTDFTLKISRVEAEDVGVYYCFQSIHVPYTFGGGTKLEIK
0.0705

Name the reported EC50 value associated with the binder 52H5D3B8-6#-VH2+VL4 (antibody, V domains shown, humanized) VH: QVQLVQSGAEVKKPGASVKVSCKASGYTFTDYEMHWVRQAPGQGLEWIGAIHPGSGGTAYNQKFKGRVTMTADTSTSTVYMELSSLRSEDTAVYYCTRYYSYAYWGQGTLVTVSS VL: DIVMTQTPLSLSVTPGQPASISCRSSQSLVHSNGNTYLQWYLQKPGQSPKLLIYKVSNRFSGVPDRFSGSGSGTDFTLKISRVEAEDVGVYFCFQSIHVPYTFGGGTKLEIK
0.0632

Name the reported EC50 value associated with the binder 52H5D3B8-6#-VH2+VL1 (antibody, V domains shown, humanized) VH: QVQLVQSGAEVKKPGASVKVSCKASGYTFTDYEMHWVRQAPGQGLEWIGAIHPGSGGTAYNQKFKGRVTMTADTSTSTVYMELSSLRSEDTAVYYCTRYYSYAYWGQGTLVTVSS VL: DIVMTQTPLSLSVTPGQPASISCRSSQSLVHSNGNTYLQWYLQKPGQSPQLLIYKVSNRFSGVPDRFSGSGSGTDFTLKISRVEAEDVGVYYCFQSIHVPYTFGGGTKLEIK
0.0824

Value source: patent US20240409663A1
